Cited source: patent US20170081400A1

Biological target: T1, human TL1A extracellular domain with N-terminal HIS and FLAG tag (human, UniProt O95150 72-251)
T1 construct: the whole entry is named
T1 sequence: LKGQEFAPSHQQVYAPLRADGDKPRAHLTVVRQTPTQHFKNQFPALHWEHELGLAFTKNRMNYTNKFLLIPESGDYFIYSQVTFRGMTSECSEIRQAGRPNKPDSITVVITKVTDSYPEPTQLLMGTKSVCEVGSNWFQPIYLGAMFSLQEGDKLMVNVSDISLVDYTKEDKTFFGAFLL
Assay: SPR Run 5, Ab from supernatant captured on Protein A, TL1A 5 ug/mL, timepoint 220
Catalogue of binders with associated TL1A Binding Level (Late)
Give the value, in units of RU, as a plain number.

1) 320-423 (antibody, human IgG1, name in Kabat numbering, V domains shown, human IgG1, lambda) VH: QVQLVQSGAEVKKPGASVKVSCKASGYTFSSYDINWVRQAPGQGLEWMGWLNPNSGNTGYAQKFQGRVTMTADRSTSTAYMELSSLRSEDTAVYYCAREVPETAAFEYWGQGTLVTVSS VL: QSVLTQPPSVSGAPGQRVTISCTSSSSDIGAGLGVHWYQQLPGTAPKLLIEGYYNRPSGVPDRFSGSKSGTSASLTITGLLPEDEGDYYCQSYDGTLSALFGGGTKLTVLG    10
2) 320-428 (antibody, human IgG1, name in Kabat numbering, V domains shown, human IgG1, lambda) VH: QVQLVQSGAEVKKPGASVKVSCKASGYTFLSYDINWVRQAPGQGLEWMGWLNPNSGNTGYAQKFQGRVTMTADRSTSTAYMELSSLRSEDTAVYYCAREVPETAAFEYWGQGTLVTVSS VL: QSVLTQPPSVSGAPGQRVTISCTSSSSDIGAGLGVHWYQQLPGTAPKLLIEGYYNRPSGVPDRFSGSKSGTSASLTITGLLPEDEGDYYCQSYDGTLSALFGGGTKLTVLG    10

The binder listed as 320-398 (antibody, human IgG1, name in Kabat numbering, V domains shown, human IgG1, lambda) VH: QVQLVQSGAEVKKPGASVKVSCKASGSTFTSYDINWVRQAPGQGLEWMGWLNPNSGNTGYAQKFQGRVTMTADRSTSTAYMELSSLRSEDTAVYYCAREVPETAAFEYWGQGTLVTVSS VL: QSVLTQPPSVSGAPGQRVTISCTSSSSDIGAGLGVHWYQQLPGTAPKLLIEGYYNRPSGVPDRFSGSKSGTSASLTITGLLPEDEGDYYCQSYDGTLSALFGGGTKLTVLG has a reported TL1A Binding Level (Late) of 11
